Every entry's value here was drawn from paper PMC9030622.

- System under test: P. falciparum deoxyhypusine synthase (DHS) (Plasmodium falciparum)
- Construct: recombinant, truncated P. falciparum DHS, N-terminally histidine-tagged
- Sequence (Q9GSW0 1-496): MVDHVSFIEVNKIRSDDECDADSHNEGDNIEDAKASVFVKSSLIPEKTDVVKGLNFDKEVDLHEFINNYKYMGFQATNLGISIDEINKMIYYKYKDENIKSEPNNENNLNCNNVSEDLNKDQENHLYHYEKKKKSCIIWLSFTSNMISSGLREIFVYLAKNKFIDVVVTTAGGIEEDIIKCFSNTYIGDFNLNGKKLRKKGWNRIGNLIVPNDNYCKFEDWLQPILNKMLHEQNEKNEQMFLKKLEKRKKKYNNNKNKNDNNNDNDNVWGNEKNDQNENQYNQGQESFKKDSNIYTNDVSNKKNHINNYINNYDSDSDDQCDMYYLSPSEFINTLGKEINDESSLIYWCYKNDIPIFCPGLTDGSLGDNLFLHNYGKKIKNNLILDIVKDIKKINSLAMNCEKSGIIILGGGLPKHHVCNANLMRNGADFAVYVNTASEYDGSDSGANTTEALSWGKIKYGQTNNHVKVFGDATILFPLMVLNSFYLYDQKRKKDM
- Test method notes: deoxyhypusine formation assay with purified recombinant PfDHS, GC/MS readout
- Format: biochemical
Reported metric: pIC50
// pIC50 here means minus log10 of the molar concentration (mol/L)

In: Recall and state the measured pIC50 for O=C(O)c1cc(O)c2cccc(O)c2n1 [C, 4,8-Dihydroxyquinoline-2-carboxylic acid] .
Out: 6.95
